# key: entry, value: protein stability index
B1: KCNG1 (parent)
chain: LFVTVTAVNLSVSTLPSLREEEEQ

# Variants of: B1
# EXPERIMENTAL PROTOCOL: protein stability index of a GFP-peptide fusion (GPS, HEK-293T) (PSI 1-6); higher = more stable;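 note: lentivirally expressed fusions sorted by FACS into six bins by GFP to DsRed ratio, PSI derived from sequencing read proportions per bin multiplied by bin number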
# CONDITION CONTEXT: c terminus: a fixed tail appended

**Q:** Fill in: protein stability index of `E20P` is ___
**A:** 1.7

**Q:** Look at this variant and give its reported protein stability index. `V8A`
**A:** 2.02

**Q:** State the recorded protein stability index for this entry: `L1G`
**A:** 3.23
